Before we begin, note that these Kd values for Macrophage colony-stimulating factor 1 receptor (Homo sapiens, UniProt P07333) originate from several publications.
parameter: Kd

INSERT INTO assay_data (smiles_record, parameter, reading) VALUES
  ('CC(C)(C)c1cc(NC(=O)Nc2ccc(-c3cn4c(n3)sc3cc(C(=O)O)ccc34)cc2)no1', 'Kd', '10 to 100 nM'),
  ('CN1CCC(c2ccc(C(=O)Nc3ccc(NC(=O)Nc4cc(C(C)(C)C)on4)cc3)nc2)CC1', 'Kd', '3 to 10 nM'),
  ('CC(C)(C)c1cc(NC(=O)Nc2ccc(-c3ccc(N)nc3)c(F)c2)no1', 'Kd', '≤ 10 nM'),
  ('CCN1CCC(Oc2ccc(C(=O)Nc3ccc(NC(=O)Nc4cc(C(C)(C)C(F)(F)F)on4)cc3)nc2)CC1', 'Kd', '< 3 nM');

---

pKd: −log10 of the molar value.
Before we begin, note that these pKd values for Macrophage colony-stimulating factor 1 receptor (Homo sapiens) originate from several publications.
parameter: pKd

INSERT INTO results (compound, parameter, reading) VALUES
  ('CC(=O)OCC1(c2cc(NC(=O)Cc3ccc(-c4ccc(N)nc4)cc3)no2)CC1', 'pKd', '≥ 8.00'),
  ('CC(C)(C)c1cc(NC(=O)Nc2ccc(-c3ccc(NCCCN4CCOCC4)nc3)cc2)no1', 'pKd', '≥ 8.00'),
  ('Cc1cc(N)ncc1-c1ccc(NC(=O)Nc2cc(C(C)(C)C)on2)nc1', 'pKd', '≥ 8.00'),
  ('CC(C)(F)c1cc(NC(=O)Nc2ccc(-c3ccc(NCCN4CCOCC4)nc3)cc2)on1', 'pKd', '≥ 8.00'),
  ('Cc1cc(-c2ccc(CC(=O)Nc3cc(C4(C)CC4)on3)cc2)cnc1N', 'pKd', '≥ 8.00'),
  ('CC(C)N1CCC(Oc2ccc(C(=O)Nc3ccc(NC(=O)Nc4cc(C(C)(CF)CF)on4)cc3)nc2)CC1', 'pKd', '> 8.52'),
  ('CC(C)(C)c1cc(NC(=O)Nc2ccc(NC(=O)c3ccc(CC4CCNCC4)cn3)cc2)no1', 'pKd', '> 8.52'),
  ('Cc1cc(N)nc(C)c1-c1ccc(NC(=O)Nc2cc(C(C)(C)C)on2)cc1', 'pKd', '≥ 8.00'),
  ('CC(F)(F)C1(c2cc(NC(=O)Cc3ccc(-c4cnc(N)cc4F)cc3)no2)CC1', 'pKd', '≥ 8.00'),
  ('CN1C(C)(C)CC(Oc2ccc(C(=O)Nc3ccc(NC(=O)Nc4cc(C(C)(C)C(F)(F)F)on4)cc3)nc2)CC1(C)C', 'pKd', '8.00 to 8.52'),
  ('CS(=O)(=O)CCNc1ccc(-c2ccc(CC(=O)Nc3cc(C4(C(F)(F)F)CC4)on3)cc2)cn1', 'pKd', '7.00 to 8.00'),
  ('CC1(c2cc(NC(=O)Cc3ccc(-c4cnc(N)cc4Cl)cc3)no2)CC1', 'pKd', '≥ 8.00'),
  ('CN1CCC(Oc2ccc(C(=O)Nc3ccc(NC(=O)Nc4cc(C(C)(CF)CF)on4)cc3)nc2)CC1', 'pKd', '> 8.52'),
  ('CN1CCN(c2cccc(C(=O)Nc3ccc(NC(=O)Nc4cc(C(C)(C)C)on4)cc3)n2)CC1', 'pKd', '8.00 to 8.52'),
  ('CC(C)(C)c1cc(NC(=O)Nc2ccc(-c3cnc4c(c3)CCCN4)cc2)no1', 'pKd', '≥ 8.00'),
  ('CC(C)(C)c1ccc(NC(=O)Nc2ccc(-c3cn4c(n3)sc3cc(OCCN5CCOCC5)ccc34)cc2)cc1', 'pKd', '7.00 to 8.00'),
  ('CC(C)(C)c1cc(NC(=O)Nc2ccc(-c3cnc(N)c(C#N)c3)cc2)no1', 'pKd', '≥ 8.00'),
  ('CC(C)(C)c1cc(NC(=O)C(F)(F)c2ccc(-c3ccc(N)nc3)cc2)no1', 'pKd', '≥ 8.00'),
  ('CC(C)(C)c1cc(NC(=O)Nc2ccc(NC(=O)c3ccc(OC4CCN(CCS(C)(=O)=O)C4)cn3)cc2)no1 (stereo not drawn)', 'pKd', '> 8.52'),
  ('Cc1nc(N)ccc1-c1ccc(CC(=O)Nc2cc(C3(C)CC3)on2)cc1', 'pKd', '≥ 8.00'),
  ('CC(C)(C)c1cc(NC(=O)Nc2ccc(-c3ccc(N)nc3)cc2)no1', 'pKd', '≥ 8.00'),
  ('CC(C)(C)c1cc(NC(=O)Cc2ccc(-c3cnc4[nH]c(=O)oc4c3)cc2)no1', 'pKd', '7.00 to 8.00'),
  ('O=C(Nc1ccc(-c2cn3c(n2)sc2cc(OCCN4CCOCC4)ccc23)cc1)Nc1ccc2c(c1)OCCO2', 'pKd', '6.00 to 7.00'),
  ('CN1C(C)(C)CC(=O)C(c2ccc(C(=O)Nc3ccc(NC(=O)Nc4cc(C(C)(C)C)on4)cc3)nc2)C1(C)C (stereo not drawn)', 'pKd', '> 8.52'),
  ('CC(C)(C)c1cc(NC(=O)Nc2ccc(-c3cn4c(n3)sc3cc(OCCCN5CCN(S(C)(=O)=O)CC5)ccc34)cc2)no1', 'pKd', '7.00 to 8.00'),
  ('CC(C)(C)c1cc(NC(=O)Nc2ccc(-c3ccc(N)nc3)c(Cl)c2)no1', 'pKd', '7.00 to 8.00'),
  ('CN1CCN(c2ccc(NC(=O)c3coc(C#N)c3)c(N3CCCCC3)c2)CC1', 'pKd', '< 6.00'),
  ('CN1C(C)(C)CC(Oc2ccc(C(=O)Nc3ccc(NC(=O)Nc4cc(C(C)(C)C)no4)cc3)nc2)CC1(C)C', 'pKd', '8.00 to 8.52'),
  ('CC1(CCNc2ccc(-c3ccc(CC(=O)Nc4cc(C(C)(C)C)on4)cc3)cn2)COC1', 'pKd', '6.30 to 7.00'),
  ('CCN1CCC(Oc2ccc(C(=O)Nc3ccc(NC(=O)Nc4cc(C(C)(C)F)no4)cc3)nc2)CC1', 'pKd', '> 8.52'),
  ('CC(C)(C)c1cc(NC(=O)Nc2ccc(NC(=O)c3cccc(OC4CCNCC4)n3)cc2)no1', 'pKd', '< 8.00'),
  ('CC1(c2cc(NC(=O)Cc3ccc(-c4cc(F)c(N)nc4F)cc3)no2)CC1', 'pKd', '≥ 8.00'),
  ('CN1C(C)(C)CC(C)(Oc2ccc(C(=O)Nc3ccc(NC(=O)Nc4cc(C(C)(C)C)on4)cc3)nc2)CC1(C)C', 'pKd', '> 8.52');

---

Before we begin, note that these Kd values for Macrophage colony-stimulating factor 1 receptor (Homo sapiens) originate from several publications.
parameter: Kd

INSERT INTO results (smiles_record, reading) VALUES
  ('CN1CCN(c2ccc(C(=O)Nc3ccc(NC(=O)Nc4cc(C(C)(C)C)on4)cc3)nc2)CC1', '< 3 nM'),
  ('COc1cc(-c2cnc(N)nc2)ccc1NC(=O)Nc1cc(C(C)(C)C)on1', '≤ 10 nM'),
  ('CC(C)(C)c1cc(NC(=O)Cc2ccc(-c3ccc(N)nc3)c(C(F)(F)F)c2)no1', '> 100 nM'),
  ('CC(C)(C)c1cc(NC(=O)Nc2ccc(-c3cnc(N)c(CN4CCOCC4)c3)cc2)no1', '10 to 100 nM'),
  ('CC(C)(C)c1cc(NC(=O)Cc2ccc(-c3cnc(NCCN4CCOCC4)nc3)cc2)no1', '≤ 10 nM'),
  ('COc1cc2nccc(Oc3ccc(NC(=O)c4nn(CCN(C)C)cc4OCC(F)(F)F)nc3)c2cc1OC', '< 100 nM'),
  ('CC(C)(C)c1cc(NC(=O)Nc2ccc(-c3cnc4c(c3)OCCN4)cc2)no1', '≤ 10 nM'),
  ('CC(C)(C)c1cc(NC(=O)Cc2ccc(-c3cnc(N)nc3)cc2)no1', '≤ 10 nM'),
  ('CC(C)(C)c1cc(NC(=O)Nc2ccc(-c3ccc(N)nc3)cc2F)no1', '≤ 10 nM'),
  ('CC(C)(CF)c1cc(NC(=O)Nc2ccc(-c3ccc(N)nc3)cc2)on1', '≤ 10 nM'),
  ('CN(C)CCNc1ncc(-c2ccc(NC(=O)Nc3cc(C(C)(C)C)on3)cc2)cn1', '≤ 10 nM'),
  ('COCCNc1ncc(-c2ccc(NC(=O)Nc3cc(C(C)(C)C)on3)cc2)cn1', '≤ 10 nM'),
  ('CN1CCN(c2ccc(NC(=O)c3cc(C#N)co3)c(N3CCCCC3)c2)CC1', '> 1000 nM'),
  ('CCN1CC(Oc2ccc(C(=O)Nc3ccc(NC(=O)Nc4cc(C(C)(C)C)on4)cc3)nc2)C1', '< 3 nM'),
  ('CC(C)(C)c1cc(NC(=O)Nc2ccc(-c3ccc(NCCN4CCCCC4)nc3)cc2F)no1', '≤ 10 nM'),
  ('CC(F)(F)C1(c2cc(NC(=O)Cc3ccc(-c4ccc(N)nc4)cc3)no2)CC1', '≤ 10 nM'),
  ('CC(C)(C)c1cc(NC(=O)Cc2ccc(-c3ccc(N)nc3C(F)(F)F)cc2)no1.CS(=O)(=O)O', '> 500 nM');
